System Tested: AR protein (Homo sapiens, UniProt P10275)
Construct: host or cells: VCaP
Sequence (P10275 whole entry): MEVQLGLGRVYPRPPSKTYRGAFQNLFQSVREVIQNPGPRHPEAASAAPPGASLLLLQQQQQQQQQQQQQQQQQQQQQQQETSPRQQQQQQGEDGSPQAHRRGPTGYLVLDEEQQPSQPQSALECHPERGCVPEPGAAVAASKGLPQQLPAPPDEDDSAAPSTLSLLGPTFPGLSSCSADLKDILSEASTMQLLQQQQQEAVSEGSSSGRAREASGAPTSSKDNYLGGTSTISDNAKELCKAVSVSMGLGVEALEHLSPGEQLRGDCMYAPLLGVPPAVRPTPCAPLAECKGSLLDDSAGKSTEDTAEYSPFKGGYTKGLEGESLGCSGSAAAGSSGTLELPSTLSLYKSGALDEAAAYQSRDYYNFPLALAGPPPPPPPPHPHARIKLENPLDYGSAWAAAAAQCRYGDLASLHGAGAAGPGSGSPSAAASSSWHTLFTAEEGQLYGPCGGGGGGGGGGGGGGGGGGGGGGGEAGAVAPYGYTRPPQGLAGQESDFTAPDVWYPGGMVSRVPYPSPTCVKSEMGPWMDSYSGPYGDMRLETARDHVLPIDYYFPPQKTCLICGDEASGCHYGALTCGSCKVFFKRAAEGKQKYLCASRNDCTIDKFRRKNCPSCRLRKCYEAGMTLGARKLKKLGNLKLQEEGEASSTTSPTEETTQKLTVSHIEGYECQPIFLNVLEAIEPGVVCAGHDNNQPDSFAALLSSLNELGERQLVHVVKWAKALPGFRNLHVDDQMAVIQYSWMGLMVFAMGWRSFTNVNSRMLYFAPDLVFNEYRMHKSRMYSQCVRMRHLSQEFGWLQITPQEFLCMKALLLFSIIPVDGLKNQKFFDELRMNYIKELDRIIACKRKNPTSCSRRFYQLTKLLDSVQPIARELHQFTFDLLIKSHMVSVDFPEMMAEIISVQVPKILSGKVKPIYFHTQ
Protocol Details: AR protein degradation in VCaP cells (Western blot)
Format: cell-based
Run Conditions: 5 nM, 8h
Description: The degradation activity of the compounds disclosed in the present invention on AR protein in VCaP cells (cell source: ATCC) The AR-positive human prostate cancer cells VCaP cultured in DMEM (GiBco catalog number 11995-065) containing 10% FBS (Hyclone catalog number SH30406.05) was inoculated in a six-well microplate (Thermo catalog number 140675) at a concentration of 3×10^5 cells/ well. […] GAPDH protein bands were also detected for each sample as the reference. […]
Outcome: t for AR protein degradation rate at fixed concentration (%) at 0.005 µM of at least 70%; f for anything lower.

As a guide, the following entries are already answered.
>>> class("C[C@H]1CC2(CCN(c3ccc(N4CCC(CN5CCC6(CCc7cc(C(=O)N[C@H]8CCC(=O)NC8=O)c(F)cc7O6)CC5)CC4)cc3)CC2)CN1c1ccc(C#N)c(Cl)c1 [A-P-42]")
"f"
>>> class("COc1cc(O[C@H]2C(C)(C)[C@H](NC(=O)c3ccc(N4CCC(C)(CN5CCC6(CCc7cc(C(=O)N[C@H]8CCC(=O)NC8=O)c(F)cc7O6)CC5)CC4)cc3)C2(C)C)ccc1C#N [A-P-31]")
"f"
>>> class("COc1cc(O[C@H]2CC[C@H](NC(=O)c3ccc(N4CCC(N5CCC6(CC5)COc5cc7c(cc56)n(C)c(=O)n7C5CCC(=O)NC5=O)CC4)nn3)CC2)ccc1C#N (stereo partly drawn) [A-P-18]")
"t"

hey, is AR protein degradation rate at fixed concentration (%) at 0.005 µM for this one >= 70%? C[C@H]1CC2(CCN(c3ccc(N4CCC(CN5CCC6(CC5)COc5ccc7c(c56)n(C)c(=O)n7C5CCC(=O)NC5=O)CC4)cc3)CC2)CN1c1ccc(C#N)c(Cl)c1 (stereo partly drawn) [A-P-26]
f
